# Procedure Text: yeast display, Sf9 membrane polyspecificity reagent, FACS + sequencing; frameworks hold sequencing errors
Readout: polyreactivity (PSR sort gate)

Primary Sequence: QVQLVESVGGLVQSGGSLRLSCAASGFIFVVYAMGSYRQAPGKERELVATISSGGGTYYADSVKGRFTISRDNAKNTVYLQMNSLKPEDTAVYYCAARRRRLYHFGGNNYWGQGTQVTVSS
Observed: high polyreactivity

Primary Sequence: QVQLVESGGGLVQAGGSLRLSCAASGLIFSAYAMGWYRQAPGKERELVAGISRRGSTYYADSVKGRFTISRDNAKNTVYLEMNCLKPEDTAVYYFAAFFRVRFRASGYDYWGQGTQVTVSS
Observed: high polyreactivity

* * *

# Procedure Text: yeast display, Sf9 membrane polyspecificity reagent, FACS + sequencing; frameworks hold sequencing errors
Readout: polyreactivity (PSR sort gate)

Primary Sequence: QVQLVESGGGLFQAGGSLRLSCAASGSTFYRYTMGWYRQAPGKERELVASISRSGGSTYYADSVKGRFTISRDNAKNTVYLQMNSLKPEDTAVYYCAAKAQGKYYQYNYWGQGTQVTVSS
Observed: high polyreactivity
--
Primary Sequence: QVQLVESGGGLVQAGGSLRLSCAASGFIIDRNAMGWSRPAPGKERELVAAITWSTTSTYYADSVKGRFTISRDNAKNTVYLQMNSLKPEDTAVYYCAADITSPAYATYDYWGQGTQVTVSS
Observed: low polyreactivity
--
Primary Sequence: QVQLVESGGGLVQAGGSLRLSCAASGSTFYIYAMGWYRQAPGKERELVAAITWSGGRTFYADSVKGRFTISRDNAKNTVYLHMNSLKPEDTAVYFCSARFWSDKTGSRYYYWGQGTQVTVSS
Observed: high polyreactivity
--
Primary Sequence: QVQLVESGGGLVQAGGSLRLSCAASGSIFYINTMGWYRQPPGKERELVAAINFSDGRTYYADSVKGRFTISRDNAKNTVYLQMNSLKPEDTAVYYCAADVYPSEYDYWGQGTQVTVSS
Observed: low polyreactivity
--
Primary Sequence: QVQLVESGGGLVQAGGSLRLSCAASGRIFRYYTMGWYRQAPGKERELVATISWNGSNTYYADSVKGRFTISRDNAKNTVYLQMNSLKPEDTAVYYCAAGVLPGLYNGARLFDYWGHGTQVTVSS
Observed: low polyreactivity
--
Primary Sequence: QVQLQESGGGLVQAGGNLRLSCAACGNIFPSAVMGWYRQALGKEREFVATINSGSNTYYADSVKGRFTISRDHAKNTVYLQTNSLKLEDTAVYYCAAYFKLPAWHTYWGQGTQVTVSS
Observed: low polyreactivity
--
Primary Sequence: QVQLVESGGGLVQAGGSLRLSCAASGGTFRRYAMGWYRQAPGKERELVAAISWTGGSTYYADSVKGRFTISRDNAKNTVYLQMNSLKPEDTGVYYCAAVGSSSSKGGYWGQGTQVTVSS
Observed: high polyreactivity
--
Primary Sequence: QVQLVESGGGLVQAGGSLRLSCAASGSIFQRYAMGWYRQAPGKERECVAAISGRGGSTYYADSVKGRFTISRDNAKNTVYLQMNSLKPEDTAVYYCAADSSRFYGRPRYYYWGQGTQVTVSS
Observed: high polyreactivity
--
Primary Sequence: QVQLQESGGGLVQAGGSLRLSCAASGYISFSGYIGRYRQAPGKEREFVDSITPGRSTYYADSVKGRFTISRDNAENTVYLQMNSLKPEDTAVYYCAADDSRTEQHAYWGQGTQVTVSS
Observed: high polyreactivity
--
Primary Sequence: QVQLVESGGGLVQAGGSLRLSCAASGRTFTVYAMGWYRQAPGKEREFVASISKSGGRTYYADSVKGRFTISRDNAKNTVYLQMNSLKPEDTAVYYCAKVETYLQIAYRRGYDSWGQGTQVTVSS
Observed: low polyreactivity
--
Primary Sequence: QVQLVESGGGLVQAGGSLRLSCAASGSTFRWYAMGWYRQAPGKERELVAAISGSGGSTYYADSVKGRFTISRDNAKKTVYLQMNSLKPEDTAVYYCNKRYFTYLGEHTVGYWGQGTQVTVSS
Observed: high polyreactivity
--
Primary Sequence: QVQLVESGGGLVQAGGSLRLSCAASGSIFRRYAMGWNRQAPGKERELVAYISRSGGSTYYADSVKGRFTISRDNAKNTVYLQMNRLKPEDTAVYYCAAQRYRTGDSWGQGTQVTVSS
Observed: high polyreactivity
--
Primary Sequence: QVQLVESGGGLVQAGGSLRLSCAASGFTIQPYTMGWYRQATGKERELVAAISKSGGSTYYADSVKGRFTISRDNAKNTVYLQMHSLKPEDTAVYYCAAVGWWGTSDYWGQGTQVTVSS
Observed: high polyreactivity
--
Primary Sequence: QVQLVESGGGLVQAGGSLRLSCAASGFILRGYAMGWYIQAPGKERELVDVITGRGDRTYYADSVKGRFTISRDNAKNTVYLQMNSLKPEETAVYYCAARAQPGGSSAIKMYYWGQGTQVTVSS
Observed: high polyreactivity
--
Primary Sequence: QVQLVESGGGLVQAGGSLRLSCAASGRTFIPYAMGWYRQAPGKERELVATIRRGGSTYYADSVKGSFTISRDNAKNTVYLQMNSLKPEDTAVYYCAATRYSFGPRRVDYWGQGTQVSVSS
Observed: high polyreactivity
--
Primary Sequence: QVQLVESGGGLVQAGGSLRLSCADSGFTFFSNAMGWYRQAPGKERELVAAITSSGRSTYADSVKGRYTISRDKAKNTVYLQMNSLKPEDSAVYYCAARRTGYLYRYGYWGQGTQVTVSS
Observed: low polyreactivity
--
Primary Sequence: QVQLVESGGGLVQAGGSLRLSCAASGFIFPYAMGWYRQAPGKEREMVAAISSTDGSTYYADSVKGRFTISRDNAKNTVYLQMNSLKPEDTAVYSCNAPFSFARYPSSWHYWDYYYWGQGTQVTVSS
Observed: low polyreactivity
--
Primary Sequence: QVQLVESGGGLVQAGGSLRLSCAASGSIYRTNAMGWYRQAPGKERELVAAITGSGGSTYYADSVKGRFTISRDNAKNTVYLQMNSLKPEDTAVYYCAAEFGSFVSPYNYYYWGQGTQVTVSS
Observed: low polyreactivity
--
Primary Sequence: QVQLVESGGGLVQAGGSLRLSCAASGRTFITNAMGRNRQAPGKERELVARISSDGSTYYADSVKGRFTISRDNAKNTVYLQMNSLKPEDTAVYYCNKEFLRRQLFTFWHLGGYWGQVTQVTVSS
Observed: low polyreactivity
--
Primary Sequence: QVQLLESGGGLVQAGGSLRLSCAASGFNFGGYVMGWYRQAPGKESELVAAISSSGGITHYADSLKGRFTISRDNAKNTVSLQMNRLKPEDTAVYYCNALYRQRYYWGQGTQVTVSS
Observed: high polyreactivity
--
Primary Sequence: QVQLVESGGGLVQAGGSLRLSCAASGINFSPYAMGWYRQAPGKERELVAAISYSGGSTYYADSVKGRFTISRDNAKNTVYLQMNSLKPEDTAVYYCAVVYSYYLAVLGYWDYDYWGQGTQVTVSS
Observed: low polyreactivity

* * *

# Procedure Text: yeast display, Sf9 membrane polyspecificity reagent, FACS + sequencing; frameworks hold sequencing errors

Primary Sequence: QVQLVESGGGLVKAGGSLRLSCAASGRIFYTNDMGWYSQAPGKERELVATISSTGSTNYADSVKGRFTISRDNAKNTVYLEMNSLKPEDTAVYYCAADRSYFLRCIIYDYWGQGTQVTVSS
polyreactivity (PSR sort gate): low polyreactivity
--
Primary Sequence: QVQLVESGGGLVQAGGSLRLSCAASGRTFRRYVMGWYRQAPGKERELVAAISYSGATTYYADSVKGRFTISRDNAKNTVYLQMNSLKPEDTAVYYCAATAPGDRYYWGQGTQVTVSS
polyreactivity (PSR sort gate): high polyreactivity
--
Primary Sequence: QDQLVESGGGLVQAGGSLRLSCAASGFNFMSKGMGWYRQAHGKETEFVAVITSSTGSTSYADSVKGRFTISRDNAKNTVYLQMNSLKPEDTGVFYCAADAYYYYAGGHYYWGQGTQVTVSS
polyreactivity (PSR sort gate): low polyreactivity
--
Primary Sequence: QVQLVESGGGLVQAGGSLRLSCAASGSIFKYYAMGSSRQAPGKERELVAAISTGGTTNYADSVKGRFTISRDNAKNTVYLQMNSLKPEDTAVYYCNRDYLVRSRYKYYYWGQGTQVTVSS
polyreactivity (PSR sort gate): low polyreactivity
--
Primary Sequence: QVQLVESGGGLVQAGGSLRLSCAASGRTFLRNAMGWYRQAPGKEREFVAAISTRDGRTYYADSVKGRFTISRDNAKNTVYLQMNSLKPEDTAVYYCNAVNTAGYYYYYAFFWDYDYWGQGTQVTVSS
polyreactivity (PSR sort gate): high polyreactivity

* * *

# Procedure Text: yeast display, Sf9 membrane polyspecificity reagent, FACS + sequencing; frameworks hold sequencing errors

Primary Sequence: QVQLVESGGGLDQAGGSLRLSCAASGSILDSYTMGWYRQAPGKERELVPAITSDGGSTYYADSVKGRFTISRDNAKNTVYLQMNSLKPEDTAVYYCAKLSRYYGFWYTPDFDYWGQGTQVTVSS
polyreactivity (PSR sort gate): high polyreactivity

Primary Sequence: QVQLVESGGGLVQAGGSLRLSCADSGRTFFYNGMGWYRQAPGKERELVAAISGSGSRTYYADSVKGRFTISRDNAKNTVYLQMNSLKPEDTAVYYCAATRVISHYRFDYWGQGTQVTVSS
polyreactivity (PSR sort gate): high polyreactivity

Primary Sequence: QVQIVDSGGGLVQAGGSLRLSCAASGRIIPANAMGWYRQAPGKERELVAAIDYDGGSTYYADSVKGRFTISRDNAKNTVYLQMNSLNPEVTAVYYCAADFYDYEGSYYDYYWGQGTQVTVSS
polyreactivity (PSR sort gate): high polyreactivity

Primary Sequence: QVQLGDSGGGLLQAGGSLRLSCAASGRTFYYNALGWYRQAPGKERELVARIRSGGSTNYADSVKGRFTISRDNAKNTVYFQMNSRKPEDTAVYYCNALGAKGYVKGFDYWGLGTQVTVSS
polyreactivity (PSR sort gate): low polyreactivity

Primary Sequence: QVQLVESGGGLVQAGGSLRLSCAASGLIFYGNAMGWYRKAPGKERELVAAISWSGGNTSYADSVKGRFTISRDNAKNTVYVLMNSLKAEDTAVDYCNADSLPSLERYGYWGQGTQVTVSS
polyreactivity (PSR sort gate): low polyreactivity

Primary Sequence: QVQLVESGGGLVQAGGSLRLSCAASGFTFHRNAMGWYRQAPGKERELVAAISTRGGSTAYADSVKGRFTISRDNAKNTVYLQMNSLKPEDTAVYYCNTRYVGQRSTWVDQVRRYDYWGQGTQVTVSS
polyreactivity (PSR sort gate): high polyreactivity

Primary Sequence: QVQLVESGGGLVQAGGILRLSCAASGFIFEYYAMGWYRQAPGKERELVAAINGGGGNTYYADSVKGRFTISRDNAKNTVYLQMNSLKPEDTAVYYCNAKRRKYRYDYWGQGTQVTVSS
polyreactivity (PSR sort gate): high polyreactivity

Primary Sequence: QVQLVESGGGLVQAGGSLRLTCAASGLIFPRYAMGWYRQAPGKERELVAAISRRGGSTRYADSVKGRFTISRDNAKNTVYLQMNSLKPEDTAVYYCAAPDFPKYYPTAYLQADEYWGQGTQVTVSS
polyreactivity (PSR sort gate): high polyreactivity

Primary Sequence: QVQLVESGGGLVQAGGSLRLSCAASGFTIGRYDMGWYRQAPGKERELVAAISWSGGSTYYADSVKGRFTISRDNAKNTVYLQMNSLKPEDTAVYYCNAAYYGYENLSKRGYWGQGTQVTVSS
polyreactivity (PSR sort gate): high polyreactivity

Primary Sequence: QVQLVESGGGLVQAGASLRLSCAASGNTFDVYAMGWYREAPGKERELVAAISRRGGSTSYADSVKGRFTISRDNAKNTFYFHMNSLKPEDTAVYYCNTDPGKYTPFDYLGQGTQVTVSS
polyreactivity (PSR sort gate): high polyreactivity

Primary Sequence: NVQLVESGGGLVQAGGSLRLSCAASGRTFPTYAMGWYRQAPGKERELVAAISSSGGSTYYADSVKGRFTISRDNAKNTVYLQMNSLKPEDTAVYYCAALRARNLNPGYDYWGQGTQVTVSS
polyreactivity (PSR sort gate): low polyreactivity

Primary Sequence: QVQLVESGGGLVQAGGSLRLSCAASGSTFYPYAMGGYRQAPGKERELVARITQNGGSTYYADSVKGRFKISRDNAKNPVYLQMNSLKPEDTAVYYCADRWISVLSYGKYDYCGQGTQVTVSS
polyreactivity (PSR sort gate): high polyreactivity

Primary Sequence: QVQLVESGAGLVQAGGSLRLSCAASGTIFRDYAMGWYRQAPGKERELVAAISSDGSTYYADSVKGRFTISRDNAKNTVYLEMNSLKPEDTAAYYCNARSYYPWEGFDYWGQGTQVTVSS
polyreactivity (PSR sort gate): low polyreactivity

Primary Sequence: QVQLVESGGGLVQAGGSLRLTCAASGFTINFYAMGGYRQAPGKERELVAAITASGGGSTYYADSVKGRFTISRDNAKNTVYLQMNSLKPEDTAVYYCNADYTGSFYTYDYWGQGTQVTVSS
polyreactivity (PSR sort gate): low polyreactivity

Primary Sequence: QVQLVESGGGLVQAGGSLRLSCAASGGTFRKYTMGWYRQAPGKERELVAAISSTGSSTYYADSVKGRFTISRDNAKNTVYLQMNSLKPEDTAVYYCAADVFSGYYWPVLEDHWGQGTQVTVSS
polyreactivity (PSR sort gate): high polyreactivity

Primary Sequence: QVQLVESGGGLVQAGGSLRLSCAASGSTFDPYGMGWYRQAPGKERELVAAITSSGRTNYADSVKGRFTISRDNAKNTVYLQMKSLKPEDTAVYYCATRKERYFYRGYEYWGQGTQVTVSS
polyreactivity (PSR sort gate): low polyreactivity

Primary Sequence: QVQLVESGGGLVQAGGSLRLSCAASGLIFYPNGMGWYRQAPGKERELVAAITYSDGSTYYADSVKGRCTISRDNAKNTVYLQMNSLKPEDTAVYYCTARWGYRRGYWGQGTQVTVSS
polyreactivity (PSR sort gate): high polyreactivity

Primary Sequence: QVQLVESGGGLVQAGGSLRLSCAASGGTFVHNAMGWYRQAPGKERELVAAISWSGGSTYYADSVKGRFTISRDNAKNTVYLQMNSLKPEDTAVYYCAADLPDYKDIFDSWGQGTQVTVSS
polyreactivity (PSR sort gate): low polyreactivity

Primary Sequence: QVQLVESGGGLVQSGGSLRLSCAASGRIFGAYAMGWYRQAPGKDRELVAAITSAGSTHYADSVKGRFTISRDNAKNTVYLQMNSLKPEDTAVYYCAADGIASAYVLFDAYDFLYDYWGQGTQVTVSS
polyreactivity (PSR sort gate): low polyreactivity

Primary Sequence: QVQLVESGGGLVQAGGSLRLSCAASGSIFSFNAMGRSRQAPGKERELVASITSGGSTNYADSVKGRFTISRDNAKNTVYLQMNSLKPEDTEVYYCNARFPYLSRWLVRGLASYDYWGQGTQVTVSS
polyreactivity (PSR sort gate): low polyreactivity

Primary Sequence: QVQLVESRGGLVQAGGSLLLSCAASGIIFRYYTMGWYRQAPGKERELVAAIERSGGNTYYADSVKGRFTISRDNAKNTVYLQMNSLKPEDTAVYYCAARYATWYFRRGRKTSDYDYWGQGTQVTVSS
polyreactivity (PSR sort gate): high polyreactivity
